target: Human M4 (Homo sapiens, UniProt P08173); construct: expressed in transfected cells; experiment: mAChR M4 cell-based functional assay (calcium flux, potentiation of EC20 acetylcholine response), hM4-Gqi5 CHO-K1 cells; settings: CHO-K1; Table 3; Human M4; % ACh maximum at 30 μM; read-out: Emax (% ACh maximum at 30 μM)
Sequence (P08173 whole entry): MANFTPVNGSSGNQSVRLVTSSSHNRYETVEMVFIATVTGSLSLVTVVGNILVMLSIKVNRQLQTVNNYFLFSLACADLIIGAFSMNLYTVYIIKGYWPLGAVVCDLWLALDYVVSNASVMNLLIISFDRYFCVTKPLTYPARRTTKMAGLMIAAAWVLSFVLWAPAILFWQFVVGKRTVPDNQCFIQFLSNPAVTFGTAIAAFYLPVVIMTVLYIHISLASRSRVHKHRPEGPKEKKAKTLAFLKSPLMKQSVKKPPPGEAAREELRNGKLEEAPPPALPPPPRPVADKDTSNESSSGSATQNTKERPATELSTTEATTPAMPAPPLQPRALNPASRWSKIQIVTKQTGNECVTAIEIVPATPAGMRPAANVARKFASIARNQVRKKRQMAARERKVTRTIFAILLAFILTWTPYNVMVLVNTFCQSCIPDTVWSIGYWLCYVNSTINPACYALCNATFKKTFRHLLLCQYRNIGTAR
measurementType: Emax at 30 µM (%)

COC1CCN(c2cnc3c(c2)CN(c2nn4c(C(F)(F)F)nnc4c(C)c2C)CC3)C1 (stereo not shown)	77
Cc1c(N2CCc3ncc(-n4nccc4C)cc3C2)nn2c(C(F)(F)F)nnc2c1C	80

A. Cc1c(N2CCc3ncc(NC4CCCC4)cc3C2)nn2c(C(F)(F)F)nnc2c1C
B. Cc1c(N2CCc3ncc(-n4ccc5ccccc54)cc3C2)nn2c(C(F)(F)F)nnc2c1C
Hey, between A and B which has a smaller measured Emax at 30 µM? Indicate your choice by writing its label.
B

P. Cc1c(N2CCc3ncc(-n4cccn4)cc3C2)nn2c(C(F)(F)F)nnc2c1C
Q. Cc1cnc2c(c1)CN(c1nn3cc(C(=O)N4CCN(C)CC4)nc3cc1C)CC2
Which of these two has the smaller recorded Emax at 30 µM: P or Q ? Use the label to indicate which entry you chose.
P
(P: 74%, Q: 111%)
